Target: mu opiate receptor (MOR) (Rattus norvegicus, UniProt P33535)
Construct: from tissue; host or cells: striatum (membrane preparation)
Sequence (P33535 whole entry): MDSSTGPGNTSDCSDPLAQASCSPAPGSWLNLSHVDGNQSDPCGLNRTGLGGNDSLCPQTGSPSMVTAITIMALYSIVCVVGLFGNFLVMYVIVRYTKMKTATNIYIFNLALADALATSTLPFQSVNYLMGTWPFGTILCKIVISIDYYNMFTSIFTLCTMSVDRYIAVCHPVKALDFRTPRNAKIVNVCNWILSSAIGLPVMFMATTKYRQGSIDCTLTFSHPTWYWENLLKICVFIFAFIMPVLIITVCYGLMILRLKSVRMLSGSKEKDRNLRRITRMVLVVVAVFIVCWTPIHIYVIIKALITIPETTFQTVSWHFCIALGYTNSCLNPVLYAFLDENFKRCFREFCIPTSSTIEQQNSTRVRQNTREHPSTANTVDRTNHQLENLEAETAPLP
Assay type: biochemical
Settings: [35S]GTPγS binding to Gαo in striatal membranes; compound 1 μM
The entries below are paired with their reported Concentration of FLNA-Binding Compound as Agonist 1 μM.
attribute-measured: Concentration of FLNA-Binding Compound as Agonist 1 μM (%)

>  <compound>
CC(=O)Nc1ccc(S(=O)(=O)N2CCC3(CC2)OCCN3S(=O)(=O)c2ccc(NC(C)=O)cc2)cc1

>  <readout-number>
301.2

$$$$
>  <compound>
COc1cc(F)ccc1C(=O)CC1c2c(cc3c(c2OC)OCO3)CC[N+]1(C)C (centres unmarked)

>  <readout-number>
223.3

$$$$
>  <compound>
CC(=O)c1ccc(S(=O)(=O)N2CCC3(CC2)OC(CN(C)C)CN3S(=O)(=O)c2ccc(C(C)=O)cc2)cc1 (centres unmarked)

>  <readout-number>
279.5

$$$$
>  <compound>
O=S(=O)(c1cccc2cccnc12)N1CCC2(CC1)OCCN2S(=O)(=O)c1cccc2cccnc12 [Compound C0143M]

>  <readout-number>
193.3

$$$$
>  <compound>
O=S(=O)(c1ccc(Br)cc1)N1CCC2(CC1)OCCN2S(=O)(=O)c1ccc(Br)cc1

>  <readout-number>
320.7

$$$$
>  <compound>
COc1c2c(cc3c1C(CC(=O)CCc1ccccc1)N(C)CC3)OCO2 (centres unmarked)

>  <readout-number>
211.0

$$$$
>  <compound>
CC1CN(CC(O)COc2ccc(Br)c(F)c2)CC(C)O1 (centres unmarked)

>  <readout-number>
283.6

$$$$
>  <compound>
CC(=O)c1ccc(OCC(O)CN2CC(C)OC(C)C2)cc1 (centres unmarked)

>  <readout-number>
209.1

$$$$
>  <compound>
COc1cccc(CCC(=O)CC2c3c(cc4c(c3OC)OCO4)CC[N+]2(C)C)c1 (centres unmarked)

>  <readout-number>
235.2

$$$$
>  <compound>
Cc1cccc(OCC(O)CN2CC(C)OC(C)C2)c1 (centres unmarked)

>  <readout-number>
287.8

$$$$
>  <compound>
COCOc1ccc(C(=O)CC2c3c(cc4c(c3OC)OCO4)CC[N+]2(C)C)cc1C (centres unmarked)

>  <readout-number>
109.3

$$$$
>  <compound>
O=S(=O)(c1ccc(Br)c(C(F)(F)F)c1)N1CCC2(CC1)OCCN2S(=O)(=O)c1ccc(Br)c(C(F)(F)F)c1

>  <readout-number>
265.4

$$$$
>  <compound>
O=S(=O)(c1ccc2ccccc2c1)N1CCC2(CC1)OCCN2S(=O)(=O)c1ccc2ccccc2c1 [Compound C0140M]

>  <readout-number>
215.4

$$$$
>  <compound>
N#Cc1ccc(S(=O)(=O)N2CCC3(CC2)OCCN3S(=O)(=O)c2ccc(C#N)cc2)cc1

>  <readout-number>
201.6

$$$$
>  <compound>
CNc1ccc(S(=O)(=O)N2CCC3(CC2)OCCN3S(=O)(=O)c2ccc(NC)cc2)cc1

>  <readout-number>
229.6

$$$$
>  <compound>
CC(=O)c1ccc(S(=O)(=O)N2CCC3(CC2)NCC(=O)N3Cc2ccccc2)cc1 [Compound C0082M]

>  <readout-number>
338.4

$$$$
>  <compound>
CC1CCC(C(C)C)C(OCC(O)CN2CC(C)OC(C)C2)C1 (centres unmarked) [Compound A0032-1]

>  <readout-number>
324.5

$$$$
>  <compound>
COc1c2c(cc3c1C(CC(=O)Cc1ccc(Br)cc1)[N+](C)(C)CC3)OCO2 (centres unmarked)

>  <readout-number>
212.6

$$$$
>  <compound>
O=S(=O)(c1ccc(C(F)(F)F)cc1Br)N1CCC2(CC1)OCCN2S(=O)(=O)c1ccc(C(F)(F)F)cc1Br

>  <readout-number>
355.3

$$$$
>  <compound>
O=S(=O)(c1ccc(Br)cc1Br)N1CCC2(CC1)OCCN2S(=O)(=O)c1ccc(Br)cc1Br

>  <readout-number>
210.8

$$$$
>  <compound>
CC1CCC(C(C)C)C(OCC(O)CN2CCCCC2C)C1 (centres unmarked)

>  <readout-number>
221.9

$$$$
>  <compound>
CC1CCC(C(C)C)C(OCC(O)CN2CC(C)CC(C)C2)C1 (centres unmarked)

>  <readout-number>
235.0

$$$$
>  <compound>
O=S(=O)(c1csc2ccccc12)N1CCC2(CC1)OCCN2S(=O)(=O)c1csc2ccccc12 [Compound C0150M]

>  <readout-number>
423.1

$$$$
>  <compound>
CC(=O)c1ccc(S(=O)(=O)N2CCC3(CC2)NC(=O)C(Cc2cnc[nH]2)N3S(=O)(=O)c2ccc(C(C)=O)cc2)cc1 (centres unmarked) [Compound C0084M]

>  <readout-number>
255.5

$$$$
>  <compound>
COc1ccc(CCC(O)CC2c3c(cc4c(c3OC)OCO4)CC[N+]2(C)C)cc1 (centres unmarked)

>  <readout-number>
364.0

$$$$
>  <compound>
CC1CCC(C(C)C)C(OCC(O)CN2CC(C)OC(C)C2)C1 (centres unmarked) [Compound A3333]

>  <readout-number>
328.3

$$$$
>  <compound>
O=S(=O)(c1ccccc1)N1CCC2(CC1)OCCN2S(=O)(=O)c1ccccc1

>  <readout-number>
230.5

$$$$
>  <compound>
O=S(=O)(c1cccc(OC(F)(F)F)c1)N1CCC2(CC1)OCCN2S(=O)(=O)c1cccc(OC(F)(F)F)c1

>  <readout-number>
227.2

$$$$
>  <compound>
COc1ccc(S(=O)(=O)N2CCC3(CC2)OCCN3S(=O)(=O)c2ccc(OC)c(OC)c2)cc1OC

>  <readout-number>
210.0

$$$$
>  <compound>
CC1CCC(C(C)C)C(OCC(O)CN2CCc3ccccc3C2)C1 (centres unmarked)

>  <readout-number>
149.0

$$$$
>  <compound>
COc1ccc(CCC(=O)CC2c3c(cc4c(c3OC)OCO4)CC[N+]2(C)C)cc1 (centres unmarked)

>  <readout-number>
213.6

$$$$
>  <compound>
COc1c2c(cc3c1C(CC(=O)/C=C/c1ccc(Cl)cc1)[N+](C)(C)CC3)OCO2 (centres unmarked)

>  <readout-number>
256.5

$$$$

====

Target: mu opiate receptor (MOR) (Rattus norvegicus, UniProt P33535)
Construct: from tissue; host or cells: striatum (membrane preparation)
Assay type: biochemical

>  <molecule>
COc1ccc(OCC(O)CN2CCc3ccccc3C2)cc1 (stereo not drawn) [Compound A0053]

>  <% DAMGO (1 μM), %>
47.5

$$$$
>  <molecule>
Cc1ccccc1S(=O)(=O)N1CCC2(CC1)OCCN2S(=O)(=O)c1ccccc1C [Compound C0015]

>  <% DAMGO (1 μM), %>
78.9

$$$$
>  <molecule>
COc1c2c(cc3c1C(CC(O)CCc1ccccc1)[N+](C)(C)CC3)OCO2 (stereo not drawn) [Compound B0052]

>  <% DAMGO (1 μM), %>
69.3

$$$$
>  <molecule>
CCN1CCC2(CC1)OCCN2S(=O)(=O)c1ccc(C(C)=O)cc1 [Compound C0094M]

>  <% DAMGO (1 μM), %>
119.9

$$$$
>  <molecule>
COc1c2c(cc3c1C(CC(=O)c1ccc(O)c(C)c1)[N+](C)(C)CC3)OCO2 (stereo not drawn) [Compound B0002]

>  <% DAMGO (1 μM), %>
81.1

$$$$
>  <molecule>
O=[N+]([O-])c1ccc(S(=O)(=O)N2CCC3(CC2)NCCO3)cc1 [Compound C0040]

>  <% DAMGO (1 μM), %>
133.2

$$$$
>  <molecule>
COc1ccc(S(=O)(=O)N2CCOC23CCN(S(=O)(=O)c2ccc(C(C)=O)cc2)CC3)cc1 [Compound C0047]

>  <% DAMGO (1 μM), %>
88.5

$$$$
>  <molecule>
COc1ccc(OCC(O)CN2CCOc3ccccc32)cc1 (stereo not drawn) [Compound A0076]

>  <% DAMGO (1 μM), %>
78.6

$$$$
>  <molecule>
CC1CCC(C(C)C)C(OCC(O)CN2CCN(C)CC2)C1 (stereo not drawn) [Compound A0009]

>  <% DAMGO (1 μM), %>
48.7

$$$$

====

The entries below are paired with their reported % DAMGO (1 μM).
Molecular target: mu opiate receptor (MOR) (Rattus norvegicus, UniProt P33535)
Construct: from tissue; host or cells: striatum (membrane preparation)
Assay type: biochemical

>  <compound>
CC1CN(CC(O)COc2cccc(C(F)(F)F)c2)CC(C)O1 (centres unmarked) [Compound A0051]

>  <target-entity>
mu opiate receptor (MOR) (Rattus norvegicus, UniProt P33535)

>  <uom>
%

>  <% DAMGO (1 μM)>
140.1

$$$$
>  <compound>
O=C(O)c1ccc(C(=O)N2CCC3(CC2)OCCN3S(=O)(=O)c2ccc(C(=O)O)cc2)cc1 [Compound C0021]

>  <target-entity>
mu opiate receptor (MOR) (Rattus norvegicus, UniProt P33535)

>  <uom>
%

>  <% DAMGO (1 μM)>
87.8

$$$$
>  <compound>
OC(COc1ccc(Br)c(F)c1)CN1CCc2ccccc2C1 (centres unmarked) [Compound A0057]

>  <target-entity>
mu opiate receptor (MOR) (Rattus norvegicus, UniProt P33535)

>  <uom>
%

>  <% DAMGO (1 μM)>
83.3

$$$$
>  <compound>
CC(=O)c1ccc(S(=O)(=O)N2CCC3(CC2)OC(CN(C)C)CN3S(=O)(=O)c2ccc(C(C)=O)cc2)cc1 (centres unmarked) [Compound C0065]

>  <target-entity>
mu opiate receptor (MOR) (Rattus norvegicus, UniProt P33535)

>  <uom>
%

>  <% DAMGO (1 μM)>
121.3

$$$$
>  <compound>
COc1ccc(C(=O)CC2c3c(cc4c(c3OC)OCO4)CC[N+]2(C)C)c(O)c1 (centres unmarked) [Compound B0033]

>  <target-entity>
mu opiate receptor (MOR) (Rattus norvegicus, UniProt P33535)

>  <uom>
%

>  <% DAMGO (1 μM)>
69.2

$$$$
>  <compound>
CC1CCC(C(C)C)C(OCC(O)CN2CCSCC2)C1 (centres unmarked) [Compound A0003]

>  <target-entity>
mu opiate receptor (MOR) (Rattus norvegicus, UniProt P33535)

>  <uom>
%

>  <% DAMGO (1 μM)>
119.9

$$$$
>  <compound>
CC1CN(CC(O)COC2CCCCC2)CC(C)O1 (centres unmarked) [Compound A0017]

>  <target-entity>
mu opiate receptor (MOR) (Rattus norvegicus, UniProt P33535)

>  <uom>
%

>  <% DAMGO (1 μM)>
100.4

$$$$
>  <compound>
O=S(=O)(c1ccc(Br)cc1C(F)(F)F)N1CCC2(CC1)OCCN2S(=O)(=O)c1ccc(Br)cc1C(F)(F)F [Compound C0068]

>  <target-entity>
mu opiate receptor (MOR) (Rattus norvegicus, UniProt P33535)

>  <uom>
%

>  <% DAMGO (1 μM)>
83.8

$$$$
>  <compound>
COc1ccc(CCC(=O)CC2c3c(cc4c(c3OC)OCO4)CC[N+]2(C)C)c(OC)c1 (centres unmarked) [Compound B0043]

>  <target-entity>
mu opiate receptor (MOR) (Rattus norvegicus, UniProt P33535)

>  <uom>
%

>  <% DAMGO (1 μM)>
97.6

$$$$
>  <compound>
CC1CCC(C)C(OCC(O)CN2CC(C)OC(C)C2)C1 (centres unmarked) [Compound A0022]

>  <target-entity>
mu opiate receptor (MOR) (Rattus norvegicus, UniProt P33535)

>  <uom>
%

>  <% DAMGO (1 μM)>
80.9

$$$$
>  <compound>
COc1cc(OC)cc(C(=O)CC2c3c(cc4c(c3OC)OCO4)CC[N+]2(C)C)c1 (centres unmarked) [Compound B0035]

>  <target-entity>
mu opiate receptor (MOR) (Rattus norvegicus, UniProt P33535)

>  <uom>
%

>  <% DAMGO (1 μM)>
93.2

$$$$
>  <compound>
COc1cccc(OC)c1CC(=O)CC1c2c(cc3c(c2OC)OCO3)CC[N+]1(C)C (centres unmarked) [Compound B0036]

>  <target-entity>
mu opiate receptor (MOR) (Rattus norvegicus, UniProt P33535)

>  <uom>
%

>  <% DAMGO (1 μM)>
52.1

$$$$
>  <compound>
CC(=O)c1ccc(S(=O)(=O)N2CCC3(CC2)OCC(CCCCN(C)C)N3S(=O)(=O)c2ccc(C(C)=O)cc2)cc1 (centres unmarked) [Compound C0080M]

>  <target-entity>
mu opiate receptor (MOR) (Rattus norvegicus, UniProt P33535)

>  <uom>
%

>  <% DAMGO (1 μM)>
92.4

$$$$
>  <compound>
O=C1CN(C2CCc3ccccc3C2)C2(CCN(S(=O)(=O)c3ccccc3)CC2)N1 (centres unmarked) [C0136M(P5)]

>  <target-entity>
mu opiate receptor (MOR) (Rattus norvegicus, UniProt P33535)

>  <uom>
%

>  <% DAMGO (1 μM)>
95.6

$$$$
>  <compound>
O=S(=O)(c1ccc(F)c(F)c1)N1CCC2(CC1)OCCN2S(=O)(=O)c1ccc(F)c(F)c1 [Compound C0072]

>  <target-entity>
mu opiate receptor (MOR) (Rattus norvegicus, UniProt P33535)

>  <uom>
%

>  <% DAMGO (1 μM)>
117.9

$$$$
>  <compound>
CC1CCC(C(C)C)C(OCC(O)CN2CCSC2)C1 (centres unmarked) [Compound A0002]

>  <target-entity>
mu opiate receptor (MOR) (Rattus norvegicus, UniProt P33535)

>  <uom>
%

>  <% DAMGO (1 μM)>
86.6

$$$$
>  <compound>
O=S(=O)(c1ccc(Br)cc1Br)N1CCC2(CC1)OCCN2S(=O)(=O)c1ccc(Br)cc1Br [Compound C0070]

>  <target-entity>
mu opiate receptor (MOR) (Rattus norvegicus, UniProt P33535)

>  <uom>
%

>  <% DAMGO (1 μM)>
95.9

$$$$
